The following compounds are listed with their measured IC50 values.
# MEASURED ON: Mucosa-associated lymphoid tissue lymphoma translocation protein 1 (Homo sapiens)
# Sequence (Q9UDY8 whole entry, the tested form may be a part): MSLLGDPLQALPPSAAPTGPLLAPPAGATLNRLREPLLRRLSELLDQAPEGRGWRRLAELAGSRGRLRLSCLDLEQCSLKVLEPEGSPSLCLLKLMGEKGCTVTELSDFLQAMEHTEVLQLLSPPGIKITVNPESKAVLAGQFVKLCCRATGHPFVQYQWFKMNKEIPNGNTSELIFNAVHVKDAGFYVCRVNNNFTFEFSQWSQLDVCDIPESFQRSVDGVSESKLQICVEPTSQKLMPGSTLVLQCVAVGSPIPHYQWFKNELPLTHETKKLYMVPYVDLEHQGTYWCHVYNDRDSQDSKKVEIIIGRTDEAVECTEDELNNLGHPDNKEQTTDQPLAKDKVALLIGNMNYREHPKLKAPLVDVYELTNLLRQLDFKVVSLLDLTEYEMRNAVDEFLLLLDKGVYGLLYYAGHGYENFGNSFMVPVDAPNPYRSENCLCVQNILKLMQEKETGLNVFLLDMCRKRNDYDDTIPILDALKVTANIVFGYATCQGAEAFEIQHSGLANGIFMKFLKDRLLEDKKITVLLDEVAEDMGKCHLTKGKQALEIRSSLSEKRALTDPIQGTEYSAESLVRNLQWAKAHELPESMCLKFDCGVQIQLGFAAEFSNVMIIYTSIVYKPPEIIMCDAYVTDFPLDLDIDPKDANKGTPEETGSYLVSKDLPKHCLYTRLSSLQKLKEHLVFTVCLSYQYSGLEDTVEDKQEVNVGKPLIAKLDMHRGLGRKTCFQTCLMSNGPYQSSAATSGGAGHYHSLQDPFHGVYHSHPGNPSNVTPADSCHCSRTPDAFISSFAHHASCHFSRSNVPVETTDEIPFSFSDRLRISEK
# ASSAY PROCEDURE: Inhibition of N-terminal his-tagged GCN4 leucine zipper fused human MALT1 […] expressed in Escherichia coli using Ac-LVSR-AMC as substrate by HTS assay
Field: value (include unit after the number)

>  <COMPOUND SMILES>
COC(=O)c1ccc2c(=O)[nH]c3c(C(=O)Nc4cccc(Cl)c4[N+](=O)[O-])sc(=S)n3c2c1

>  <MEASURED ON>
Mucosa-associated lymphoid tissue lymphoma translocation protein 1 (Homo sapiens)

>  <IC50>
3 µM

$$$$
>  <COMPOUND SMILES>
O=C(Nc1cc(Cl)cc(Cl)c1)c1sc(=S)n2c1[nH]c(=O)c1ccccc12

>  <MEASURED ON>
Mucosa-associated lymphoid tissue lymphoma translocation protein 1 (Homo sapiens)

>  <IC50>
2.2 µM

$$$$
>  <COMPOUND SMILES>
COc1ccccc1NC(=O)c1sc(=S)n2c1[nH]c(=O)c1ccc(Br)cc12

>  <MEASURED ON>
Mucosa-associated lymphoid tissue lymphoma translocation protein 1 (Homo sapiens)

>  <IC50>
7.7 µM

$$$$

For the next question, use this compound.
Quick note, IC50 for CCc1ccccc1NC(=O)c1sc(=S)n2c1[nH]c(=O)c1ccc(C(=O)OC)cc12 landed at 3.2 µM

###

# MEASURED ON: Mucosa-associated lymphoid tissue lymphoma translocation protein 1 (Homo sapiens)
# ASSAY PROCEDURE: Inhibition of N-terminal his-tagged GCN4 leucine zipper fused human MALT1 […] expressed in Escherichia coli using Ac-LVSR-AMC as substrate by HTS assay
The following compounds are listed with their measured IC50 values.
Field: numeric (µM). Do not append units.

Worked examples, 2 compounds total:
>  <COMPOUND>
CSc1ccc2c(c1)N(CCC1CCCCN1C)c1ccccc1S2 (stereo not given) [THIORIDAZINE]

>  <IC50 [µM]>
4.1

$$$$
>  <COMPOUND>
COc1ccc(OC)c(NC(=O)c2sc(=S)n(-c3ccc(C(F)(F)F)cc3)c2NC(=O)CCl)c1

>  <IC50 [µM]>
5.3

$$$$

For the next question, use this compound.
Quick note, IC50 for CCc1ccccc1NC(=O)c1sc(=S)n2c1[nH]c(=O)c1ccc(Cl)cc12 landed at 5.1
